Parameter: IC50. Scope: all listed entries.
assayedSystem: angiotensin converting enzyme (human urinary ACE) (Homo sapiens, UniProt P12821)
Construct: ACE purified from human urine; from tissue; host or cells: human urine (ultrafiltration and Sephacryl S-200, first eluting peak; prepared as in Ryan et al., Tissue and Cell 10, 555 (1978))
Sequence (P12821 30-1232 limits assumed): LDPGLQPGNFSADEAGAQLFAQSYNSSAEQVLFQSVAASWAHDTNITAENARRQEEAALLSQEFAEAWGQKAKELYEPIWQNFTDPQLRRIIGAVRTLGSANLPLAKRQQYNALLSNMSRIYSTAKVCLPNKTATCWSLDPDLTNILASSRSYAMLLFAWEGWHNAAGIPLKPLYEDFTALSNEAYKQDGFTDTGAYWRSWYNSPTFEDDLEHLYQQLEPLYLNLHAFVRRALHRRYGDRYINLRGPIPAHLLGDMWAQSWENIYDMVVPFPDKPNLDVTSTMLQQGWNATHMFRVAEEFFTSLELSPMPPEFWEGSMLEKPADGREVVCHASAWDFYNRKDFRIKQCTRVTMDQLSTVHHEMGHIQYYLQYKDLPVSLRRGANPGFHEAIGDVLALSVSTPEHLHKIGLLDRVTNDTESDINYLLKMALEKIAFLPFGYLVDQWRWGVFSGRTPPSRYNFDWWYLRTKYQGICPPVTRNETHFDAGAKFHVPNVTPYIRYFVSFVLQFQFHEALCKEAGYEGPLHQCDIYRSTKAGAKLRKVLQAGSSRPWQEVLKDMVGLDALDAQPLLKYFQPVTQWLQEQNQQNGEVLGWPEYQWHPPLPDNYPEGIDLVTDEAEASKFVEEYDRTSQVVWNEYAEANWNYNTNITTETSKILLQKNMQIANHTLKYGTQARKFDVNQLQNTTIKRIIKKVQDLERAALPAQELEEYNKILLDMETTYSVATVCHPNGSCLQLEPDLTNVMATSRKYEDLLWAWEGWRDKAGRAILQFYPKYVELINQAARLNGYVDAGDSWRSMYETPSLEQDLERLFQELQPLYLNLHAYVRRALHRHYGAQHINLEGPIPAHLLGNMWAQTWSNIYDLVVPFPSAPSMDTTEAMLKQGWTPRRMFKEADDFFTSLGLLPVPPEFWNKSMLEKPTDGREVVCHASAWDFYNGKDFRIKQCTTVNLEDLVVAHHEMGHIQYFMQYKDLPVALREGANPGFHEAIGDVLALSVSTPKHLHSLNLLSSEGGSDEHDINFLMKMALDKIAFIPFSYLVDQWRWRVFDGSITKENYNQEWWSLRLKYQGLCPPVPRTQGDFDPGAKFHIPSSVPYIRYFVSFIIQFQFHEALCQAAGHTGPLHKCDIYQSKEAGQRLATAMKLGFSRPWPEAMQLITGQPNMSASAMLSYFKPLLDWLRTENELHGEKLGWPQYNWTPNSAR
methodNotes: ACE activity assay, I50 (Example 216A)
Type: biochemical
statedConditions: human urinary ACE; Benzoyl-GlyHisLeu 1×10^-4 M; Hepes pH 8.0; 37° C; in vitro; read-out: I50
Respond with the bare value in nM.

INSERT INTO measurements (compound, endpointvalue) VALUES
  ('C[C@H](CSC(=O)[C@H](Cc1ccccc1)NC(=O)[C@H](CCCCNC(=O)OC(C)(C)C)NC(=O)C1CCCC1)C(=O)N1CCC[C@H]1C(=O)O', 25),
  ('N[C@@H](CCC(=O)N[C@@H](CS)C(=O)NCC(=O)O)C(=O)O [γ Glu--Cys--Gly (glutathione), γ Glu--Cys--Gly]', 40000),
  ('C[C@H](CSC(=O)[C@@H](Cc1ccccc1)NC(=O)c1ccccc1)C(=O)N1CCC[C@H]1C(=O)O [Example 197]', 9);

Kindly consider the entry below.
Req: Recall and state the measured IC50 for O=C(NC(Cc1ccccc1)C(=O)SCCC(=O)N1CCC[C@H]1C(=O)O)c1ccccc1 (stereo partly shown) [(III)] .
Resp: 700

----------
assayedSystem: angiotensin converting enzyme (human urinary ACE) (Homo sapiens)
Construct: ACE purified from human urine; from tissue; host or cells: human urine (ultrafiltration and Sephacryl S-200, first eluting peak; prepared as in Ryan et al., Tissue and Cell 10, 555 (1978))
methodNotes: ACE activity assay, I50 (Example 216A)
Format: biochemical
statedConditions: I50, human urinary ACE; Benzoyl-GlyHisLeu 1×10^-4 M; Hepes pH 8.0; 37° C; in vitro
measurementName: IC50 (µM)
Respond with the bare value in µM.

Req: Recall and state the measured IC50 for N[C@@H](CS)C(=O)O [L-cysteine] .
Resp: 200
